System: MCF-7 (breast)
Test: Sulforhodamine B human cancer cell growth inhibition, MCF-7
Assay type: cell-based
Settings: MCF-7 breast cell line, compounds in DMSO, 48 h
Experimental: Cancer Cell Line Procedures. Inhibition of human cancer cell growth was assessed using the standard sulforhodamine B assay of the U.S. National Cancer Institute, as previously described.^15 To begin, cells in a 5% fetal bovine serum/RPMI1640 medium were inoculated in 96-well plates and incubated for 24 h. Next, serial dilutions of the compounds were added. After 48 h, the plates were fixed with trichloroacetic acid, stained with sulforhodamine B, and read with an automated microplate reader.
Measurement name: Gl50 Growth Inhibition, MCF-7

>>> result("C=C(CBr)[C@@H]1CC[C@]2(COC(C)=O)CC[C@]3(C)[C@H](CC[C@@H]4[C@@]5(C)CC[C@H](OC(C)=O)C(C)(C)[C@@H]5CC[C@]43C)[C@@H]12 [Compound 12, 3,28-Di-O-acetyl-30-bromo-betulin]")
">10 µg/mL"
>>> result("C=C(CNC(=O)[C@H](C)[C@@H](OC)[C@@H]1CCCN1C(=O)OC(C)(C)C)[C@@H]1CC[C@]2(CO)CC[C@]3(C)[C@H](CC[C@@H]4[C@@]5(C)CC[C@H](O)C(C)(C)[C@@H]5CC[C@]43C)[C@@H]12 [Compound 15a, 30-N-(Boc-dap)-betulin]")
"9.0 µg/mL"
>>> result("C=C(CNC(=O)[C@H](C)[C@@H](OC)[C@@H]1CCCN1C(=O)OC(C)(C)C)[C@@H]1CC[C@]2(COC(C)=O)CC[C@]3(C)[C@H](CC[C@@H]4[C@@]5(C)CC[C@H](OC(C)=O)C(C)(C)[C@@H]5CC[C@]43C)[C@@H]12 [Compound 15b]")
">10 µg/mL"
>>> result("C=C(C)[C@@H]1CC[C@]2(COC(C)=O)CC[C@]3(C)[C@H](CC[C@@H]4[C@@]5(C)CC[C@H](NC(=O)[C@H](C)[C@@H](OC)[C@@H]6CCCN6C(=O)C[C@@H](OC)[C@H]([C@@H](C)CC)N(C)C(=O)[C@@H](NC(=O)[C@H](C(C)C)N(C)C)C(C)C)C(C)(C)[C@@H]5CC[C@]43C)[C@@H]12 [Compound 11a]")
"4.1 µg/mL"
>>> result("C=C(C)[C@@H]1CC[C@]2(CNC(=O)[C@H](C)[C@@H](OC)[C@@H]3CCCN3C(=O)C[C@@H](OC)[C@H]([C@@H](C)CC)N(C)C(=O)[C@@H](NC(=O)[C@H](C(C)C)N(C)C)C(C)C)CC[C@]3(C)[C@H](CC[C@@H]4[C@@]5(C)CC[C@H](OC(C)=O)C(C)(C)[C@@H]5CC[C@]43C)[C@@H]12 [Compound 7a]")
"3.6 µg/mL"
>>> result("C=C(C)[C@@H]1CC[C@]2(COC(C)=O)CC[C@]3(C)[C@H](CC[C@@H]4[C@@]5(C)CCC(N)C(C)(C)[C@@H]5CC[C@]43C)[C@@H]12 (single isomer, unassigned) [Compound 9a, 3-α/β-Amino-28-O-acetyl-betulin]")
"2.1 µg/mL"
>>> result("C=C(CN)[C@@H]1CC[C@]2(CO)CC[C@]3(C)[C@H](CC[C@@H]4[C@@]5(C)CC[C@H](O)C(C)(C)[C@@H]5CC[C@]43C)[C@@H]12 [Compound 14, 30-Amino-betulin]")
"3.1 µg/mL"
>>> result("C=C(CNC(=O)[C@H](C)[C@@H](OC)[C@@H]1CCCN1C(=O)C[C@@H](OC)[C@H]([C@@H](C)CC)N(C)C(=O)[C@@H](NC(=O)[C@H](C(C)C)N(C)C)C(C)C)[C@@H]1CC[C@]2(COC(C)=O)CC[C@]3(C)[C@H](CC[C@@H]4[C@@]5(C)CC[C@H](OC(C)=O)C(C)(C)[C@@H]5CC[C@]43C)[C@@H]12 [Compound 16a]")
"6.3 µg/mL"
